molecular target: HDAC3 (Homo sapiens, UniProt O15379); test: biochemical; conditions: recombinant enzyme, n ≥ 2, SD <10% of mean
Sequence (O15379 whole entry): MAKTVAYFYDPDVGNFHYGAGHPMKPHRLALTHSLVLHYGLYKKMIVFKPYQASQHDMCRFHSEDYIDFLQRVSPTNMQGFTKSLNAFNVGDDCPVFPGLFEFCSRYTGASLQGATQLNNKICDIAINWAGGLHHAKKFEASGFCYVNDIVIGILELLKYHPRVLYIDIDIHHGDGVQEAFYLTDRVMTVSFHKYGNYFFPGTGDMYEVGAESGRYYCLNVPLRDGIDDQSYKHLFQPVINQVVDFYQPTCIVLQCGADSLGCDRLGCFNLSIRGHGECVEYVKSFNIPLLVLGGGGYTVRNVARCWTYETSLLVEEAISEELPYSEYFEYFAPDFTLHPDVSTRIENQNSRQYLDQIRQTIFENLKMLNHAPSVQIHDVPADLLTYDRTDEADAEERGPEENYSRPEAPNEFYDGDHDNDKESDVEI
Sequence (Q9Y618 395-489 partner limits assumed): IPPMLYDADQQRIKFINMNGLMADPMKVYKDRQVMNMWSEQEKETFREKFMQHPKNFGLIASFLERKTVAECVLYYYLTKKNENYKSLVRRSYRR
property-label: IC50 (nM)
Number only, in nM; omit the unit.

Enquiry: Data request, read-out IC50, for Nc1cc(F)ccc1NC(=O)c1ccc(N(CCCl)CCCl)cc1 [FNA]
Return: 95.5

###

molecular target: HDAC1 (Homo sapiens); experiment: HDAC enzyme inhibition assay (fluorogenic substrate); settings: recombinant enzyme, n ≥ 2, SD <10% of mean
Sequence (Q13547 whole entry): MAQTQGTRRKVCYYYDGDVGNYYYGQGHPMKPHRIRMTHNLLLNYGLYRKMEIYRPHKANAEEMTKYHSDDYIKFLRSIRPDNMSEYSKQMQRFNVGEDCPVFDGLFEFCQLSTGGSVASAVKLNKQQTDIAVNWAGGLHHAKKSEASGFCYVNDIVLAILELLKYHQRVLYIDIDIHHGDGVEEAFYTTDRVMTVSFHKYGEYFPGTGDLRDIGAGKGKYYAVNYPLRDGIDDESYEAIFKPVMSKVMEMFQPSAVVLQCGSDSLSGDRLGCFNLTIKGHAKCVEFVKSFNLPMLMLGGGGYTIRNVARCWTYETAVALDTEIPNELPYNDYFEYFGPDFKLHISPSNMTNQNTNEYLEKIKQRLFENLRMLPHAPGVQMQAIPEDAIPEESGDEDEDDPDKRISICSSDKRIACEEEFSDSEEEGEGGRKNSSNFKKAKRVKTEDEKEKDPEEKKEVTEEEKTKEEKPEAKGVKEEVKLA
property-label: pIC50
API: returns pIC50 as number; meaning -log10 of concentration in mol/L.

Enquiry: Data request, read-out pIC50, for "Nc1cc(F)ccc1NC(=O)c1ccc(N(CCCl)CCCl)cc1"
Return: 6.07

###

target: UniProt Q9UKV0
Sequence (Q9UKV0 whole entry): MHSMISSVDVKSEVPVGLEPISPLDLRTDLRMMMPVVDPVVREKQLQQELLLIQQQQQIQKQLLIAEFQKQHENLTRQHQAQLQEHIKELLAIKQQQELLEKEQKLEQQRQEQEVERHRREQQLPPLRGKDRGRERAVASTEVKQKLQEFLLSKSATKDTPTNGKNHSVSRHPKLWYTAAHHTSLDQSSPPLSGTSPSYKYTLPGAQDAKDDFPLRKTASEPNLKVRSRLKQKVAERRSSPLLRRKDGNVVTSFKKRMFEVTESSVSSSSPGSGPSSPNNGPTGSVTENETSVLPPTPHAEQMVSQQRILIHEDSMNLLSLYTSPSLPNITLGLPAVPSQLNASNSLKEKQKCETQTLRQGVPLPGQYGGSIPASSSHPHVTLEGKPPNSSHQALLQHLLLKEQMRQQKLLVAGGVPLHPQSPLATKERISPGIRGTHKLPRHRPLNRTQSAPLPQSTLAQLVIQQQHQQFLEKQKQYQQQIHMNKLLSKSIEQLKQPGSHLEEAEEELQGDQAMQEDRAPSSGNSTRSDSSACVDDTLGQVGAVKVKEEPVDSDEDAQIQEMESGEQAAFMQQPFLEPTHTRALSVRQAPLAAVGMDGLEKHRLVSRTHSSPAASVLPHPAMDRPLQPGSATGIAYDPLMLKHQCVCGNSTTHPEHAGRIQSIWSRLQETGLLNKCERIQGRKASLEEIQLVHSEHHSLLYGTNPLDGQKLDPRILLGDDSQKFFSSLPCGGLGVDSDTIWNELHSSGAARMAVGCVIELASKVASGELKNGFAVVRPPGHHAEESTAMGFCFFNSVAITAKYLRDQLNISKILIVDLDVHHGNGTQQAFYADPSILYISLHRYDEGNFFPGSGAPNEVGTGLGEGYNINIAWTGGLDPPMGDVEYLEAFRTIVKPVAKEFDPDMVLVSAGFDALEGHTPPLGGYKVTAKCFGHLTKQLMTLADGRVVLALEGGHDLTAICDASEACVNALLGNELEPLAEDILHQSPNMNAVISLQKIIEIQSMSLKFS
pIC50: −log10 of the molar value.
property-label: pIC50

Enquiry: Data request, read-out pIC50, for "Nc1cc(F)ccc1NC(=O)c1ccc(N(CCCl)CCCl)cc1"
Return: < 5.30

###

target: HDAC8 (Homo sapiens); construct: purchased BPS Bioscience; experiment: biochemical
Sequence (Q9BY41 whole entry): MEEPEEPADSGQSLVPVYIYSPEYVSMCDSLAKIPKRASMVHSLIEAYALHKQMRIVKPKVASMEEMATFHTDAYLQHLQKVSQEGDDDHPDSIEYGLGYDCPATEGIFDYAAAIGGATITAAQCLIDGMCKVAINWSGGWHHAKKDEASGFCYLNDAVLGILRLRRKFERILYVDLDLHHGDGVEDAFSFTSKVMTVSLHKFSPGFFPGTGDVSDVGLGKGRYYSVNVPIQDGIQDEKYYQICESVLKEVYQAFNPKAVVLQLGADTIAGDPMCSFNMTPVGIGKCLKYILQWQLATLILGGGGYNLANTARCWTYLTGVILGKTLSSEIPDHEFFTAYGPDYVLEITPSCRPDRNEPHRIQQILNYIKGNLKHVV
pIC50: −log10 of the molar value.
property-label: pIC50

Enquiry: Data request, read-out pIC50, for Nc1cc(F)ccc1NC(=O)c1ccc(N(CCCl)CCCl)cc1 [FNA]
Return: < 5.30

###

target: HDAC4 (Homo sapiens, UniProt P56524)
Sequence (P56524 whole entry): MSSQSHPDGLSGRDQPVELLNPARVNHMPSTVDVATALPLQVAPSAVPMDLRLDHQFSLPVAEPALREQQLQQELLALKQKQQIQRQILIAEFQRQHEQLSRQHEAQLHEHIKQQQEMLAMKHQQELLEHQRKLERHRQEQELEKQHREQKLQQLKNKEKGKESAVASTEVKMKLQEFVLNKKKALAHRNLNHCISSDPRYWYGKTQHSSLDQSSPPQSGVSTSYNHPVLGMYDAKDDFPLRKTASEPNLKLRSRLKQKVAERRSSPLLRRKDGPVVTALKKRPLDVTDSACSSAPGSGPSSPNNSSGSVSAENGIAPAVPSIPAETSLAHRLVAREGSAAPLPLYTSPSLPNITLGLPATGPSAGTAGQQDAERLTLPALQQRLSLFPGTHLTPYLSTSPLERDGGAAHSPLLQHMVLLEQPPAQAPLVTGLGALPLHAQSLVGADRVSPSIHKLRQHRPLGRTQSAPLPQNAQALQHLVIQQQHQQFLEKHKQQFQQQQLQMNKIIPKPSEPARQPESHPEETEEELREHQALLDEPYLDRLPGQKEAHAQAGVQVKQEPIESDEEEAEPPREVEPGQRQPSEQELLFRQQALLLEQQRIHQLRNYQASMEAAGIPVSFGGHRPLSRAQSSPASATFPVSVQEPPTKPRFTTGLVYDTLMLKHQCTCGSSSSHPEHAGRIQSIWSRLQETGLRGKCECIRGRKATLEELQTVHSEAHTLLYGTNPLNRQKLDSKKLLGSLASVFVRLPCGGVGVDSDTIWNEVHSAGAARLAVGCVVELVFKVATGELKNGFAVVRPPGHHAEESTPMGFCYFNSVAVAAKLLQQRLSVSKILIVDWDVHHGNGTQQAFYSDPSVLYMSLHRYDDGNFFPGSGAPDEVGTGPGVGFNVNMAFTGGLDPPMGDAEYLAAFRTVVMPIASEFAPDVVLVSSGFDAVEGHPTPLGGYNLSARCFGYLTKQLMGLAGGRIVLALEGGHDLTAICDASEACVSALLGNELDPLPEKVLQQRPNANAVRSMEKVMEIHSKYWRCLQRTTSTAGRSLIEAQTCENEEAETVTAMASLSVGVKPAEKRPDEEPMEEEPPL
property-label: IC50

Enquiry: Data request, read-out IC50, for "Nc1cc(F)ccc1NC(=O)c1ccc(N(CCCl)CCCl)cc1"
Return: > 5 µM

###

test system: SK-NEP-1 cells; test: Antiproliferative MTT assay; format: cell-based; conditions: Homo sapiens, SK-NEP-1, 48 h, read-out: Antiproliferative IC50
property-label: pIC50
API: returns pIC50 as number; meaning -log10 of concentration in mol/L.

Enquiry: Enter reported pIC50 observed with SK-NEP-1 cells for "Nc1cc(F)ccc1NC(=O)c1ccc(N(CCCl)CCCl)cc1"
Return: 5.08

###

tested on: HepG2 cells; assay: Antiproliferative MTT assay; format: cell-based, human; details: Homo sapiens, HepG2, 48 h, read-out: Antiproliferative IC50
property-label: IC50 (nM)
Number only, in nM; omit the unit.

Enquiry: Enter reported IC50 observed with HepG2 cells for Nc1cc(F)ccc1NC(=O)c1ccc(N(CCCl)CCCl)cc1 [FNA]
Return: 1300

###

System: U937 cells
Assay: Antiproliferative MTT assay
Format: cell-based
Conditions: Homo sapiens, U-937, 48 h, read-out: Antiproliferative IC50
Procedure: The stock solutions of compounds to be tested were prepared in culture medium. […] To determine cell viability, 20 μL MTT working solution (5 mg/mL) was then added to each well and incubated for another 4 h. […] The optical densities (ODs) at 490 and 630 nm were counted by Universal Microplate Spectrophotometer. […]
property-label: IC50 (nM)
Number only, in nM; omit the unit.

Enquiry: Data request, read-out IC50, for "Nc1cc(F)ccc1NC(=O)c1ccc(N(CCCl)CCCl)cc1"
Return: 550

###

test system: K562 cells; test: Antiproliferative MTT assay; format: cell-based; settings: Homo sapiens, K562, 48 h, read-out: Antiproliferative IC50
property-label: pIC50
API: returns pIC50 as number; meaning -log10 of concentration in mol/L.

Enquiry: Data request, read-out pIC50, for "Nc1cc(F)ccc1NC(=O)c1ccc(N(CCCl)CCCl)cc1"
Return: 5.88

###

target: UniProtKB Q92769; test: biochemical; settings: recombinant enzyme, n ≥ 2, SD <10% of mean
Sequence (Q92769 whole entry): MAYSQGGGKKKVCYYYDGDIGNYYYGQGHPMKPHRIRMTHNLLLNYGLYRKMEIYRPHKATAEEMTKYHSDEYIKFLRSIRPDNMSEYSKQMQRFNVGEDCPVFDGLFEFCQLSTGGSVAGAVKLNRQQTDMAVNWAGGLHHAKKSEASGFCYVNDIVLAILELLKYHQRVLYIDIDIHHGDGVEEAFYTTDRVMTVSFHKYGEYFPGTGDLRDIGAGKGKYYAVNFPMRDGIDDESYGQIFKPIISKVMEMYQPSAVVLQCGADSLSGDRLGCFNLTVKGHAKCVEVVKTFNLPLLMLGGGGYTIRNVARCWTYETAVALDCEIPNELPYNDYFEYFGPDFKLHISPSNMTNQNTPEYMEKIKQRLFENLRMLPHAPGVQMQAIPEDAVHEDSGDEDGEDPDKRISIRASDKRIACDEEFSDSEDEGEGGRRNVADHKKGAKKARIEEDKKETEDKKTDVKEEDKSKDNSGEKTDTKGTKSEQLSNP
property-label: IC50 (nM)
Number only, in nM; omit the unit.

Enquiry: Data request, read-out IC50, for "Nc1cc(F)ccc1NC(=O)c1ccc(N(CCCl)CCCl)cc1"
Return: 949

###

tested on: MDA-MB-231 cells; experiment: Antiproliferative MTT assay; type: cell-based; conditions: Homo sapiens, MDA-MB-231, 48 h, read-out: Antiproliferative IC50
property-label: pIC50
API: returns pIC50 as number; meaning -log10 of concentration in mol/L.

Enquiry: Data request, read-out pIC50, for "Nc1cc(F)ccc1NC(=O)c1ccc(N(CCCl)CCCl)cc1"
Return: 4.45

Taken from paper PMC7593677.
